Target: isolated recombinant JAK1 kinase domain (Homo sapiens (Human), UniProt P23458)
Sequence (P23458 875-1153): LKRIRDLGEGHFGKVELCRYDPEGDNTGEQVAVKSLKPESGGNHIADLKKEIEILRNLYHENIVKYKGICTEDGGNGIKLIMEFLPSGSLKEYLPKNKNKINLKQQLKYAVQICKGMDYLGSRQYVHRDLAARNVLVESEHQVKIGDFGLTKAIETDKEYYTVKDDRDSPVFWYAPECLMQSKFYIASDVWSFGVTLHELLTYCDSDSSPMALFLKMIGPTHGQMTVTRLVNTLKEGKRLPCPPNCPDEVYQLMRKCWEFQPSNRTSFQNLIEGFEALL
Test: JAK enzyme assay (Caliper LabChip peptide phosphorylation), JAK1
Format: biochemical
Conditions: 1.5 nM JAK1, ATP 25 μM, Morrison tight binding model
pKi: −log10 of the molar value.
Kind request: treat 9 as inclusive, so pKi at 9 or higher is y, anything lower is n.

O=C(Nc1c[nH]nc1-c1cc(Cl)ccc1OC(F)F)c1cnn2cc(F)cnc12: y

Task: Entry O=C(Nc1c[nH]nc1-c1cc(Cl)ccc1OC(F)F)c1cncc2[nH]cnc12 : is its pKi no less than 9?
Result: n

Task: Has O=C(Nc1c[nH]nc1-c1cc(Cl)ccc1OC(F)F)c1cncc2scnc12 a recorded pKi greater than or equal to 9?
Result: n

Task: Tell me whether pKi is at least 9 here: O=C(Nc1c[nH]nc1-c1cc(Cl)ccc1OC(F)F)c1cncc2cn[nH]c12
Result: n
